Data origin, for the record: patent US20110230476A1

Biological target: PI3Kα (p110α/p85α) (Homo sapiens, UniProt P42336)
Sequence (P42336 whole entry): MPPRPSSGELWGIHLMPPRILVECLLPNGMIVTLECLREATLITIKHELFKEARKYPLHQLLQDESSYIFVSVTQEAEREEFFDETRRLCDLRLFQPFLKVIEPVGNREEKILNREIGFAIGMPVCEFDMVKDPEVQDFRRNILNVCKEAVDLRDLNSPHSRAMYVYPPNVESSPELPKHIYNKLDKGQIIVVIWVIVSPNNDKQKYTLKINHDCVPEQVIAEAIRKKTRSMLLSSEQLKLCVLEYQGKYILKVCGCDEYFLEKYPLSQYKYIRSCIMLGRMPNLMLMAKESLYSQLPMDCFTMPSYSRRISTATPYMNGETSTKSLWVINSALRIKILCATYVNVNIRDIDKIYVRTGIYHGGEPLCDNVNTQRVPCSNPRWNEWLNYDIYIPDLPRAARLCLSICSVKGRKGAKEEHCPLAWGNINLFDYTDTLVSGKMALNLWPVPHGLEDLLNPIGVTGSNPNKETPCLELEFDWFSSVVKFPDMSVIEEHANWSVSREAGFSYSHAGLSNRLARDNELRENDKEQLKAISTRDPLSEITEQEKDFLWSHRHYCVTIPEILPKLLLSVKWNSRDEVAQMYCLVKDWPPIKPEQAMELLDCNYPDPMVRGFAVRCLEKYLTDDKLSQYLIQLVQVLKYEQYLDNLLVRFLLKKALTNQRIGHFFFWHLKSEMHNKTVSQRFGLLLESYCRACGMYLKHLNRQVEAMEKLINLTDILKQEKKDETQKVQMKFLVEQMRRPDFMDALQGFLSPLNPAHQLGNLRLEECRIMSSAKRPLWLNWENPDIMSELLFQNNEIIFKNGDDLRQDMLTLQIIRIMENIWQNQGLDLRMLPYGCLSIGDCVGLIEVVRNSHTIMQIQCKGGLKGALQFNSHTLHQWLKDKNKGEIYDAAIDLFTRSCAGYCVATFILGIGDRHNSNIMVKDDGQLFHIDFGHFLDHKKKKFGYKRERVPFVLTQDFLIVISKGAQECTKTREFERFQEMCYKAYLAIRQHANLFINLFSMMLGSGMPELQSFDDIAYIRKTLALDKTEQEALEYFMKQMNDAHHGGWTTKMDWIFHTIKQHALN
Sequence (P27986 whole entry partner): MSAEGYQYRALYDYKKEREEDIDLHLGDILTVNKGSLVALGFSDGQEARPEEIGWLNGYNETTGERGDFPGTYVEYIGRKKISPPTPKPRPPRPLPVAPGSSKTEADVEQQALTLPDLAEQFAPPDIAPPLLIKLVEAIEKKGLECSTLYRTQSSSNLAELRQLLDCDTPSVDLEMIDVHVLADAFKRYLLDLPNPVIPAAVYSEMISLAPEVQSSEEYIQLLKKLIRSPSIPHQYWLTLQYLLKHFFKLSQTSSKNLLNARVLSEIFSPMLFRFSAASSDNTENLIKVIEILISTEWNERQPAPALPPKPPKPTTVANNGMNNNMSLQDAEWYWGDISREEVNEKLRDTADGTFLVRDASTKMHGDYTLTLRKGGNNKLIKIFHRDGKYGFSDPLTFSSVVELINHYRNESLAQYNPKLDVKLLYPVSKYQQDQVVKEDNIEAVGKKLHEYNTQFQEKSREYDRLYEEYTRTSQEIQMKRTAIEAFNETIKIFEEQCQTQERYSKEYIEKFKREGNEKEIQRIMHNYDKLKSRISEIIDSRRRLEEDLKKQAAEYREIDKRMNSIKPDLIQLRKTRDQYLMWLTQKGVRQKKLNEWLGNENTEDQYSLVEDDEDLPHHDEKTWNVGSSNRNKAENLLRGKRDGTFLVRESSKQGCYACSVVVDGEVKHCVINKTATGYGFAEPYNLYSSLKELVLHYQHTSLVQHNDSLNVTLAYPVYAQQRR
Assay: HTRF assay, potency against active PI3Kα
Conditions: HTRF; [ATP]=50 μM, [di-C8-PIP2]=10 μM; 30 min pre-incubation; read-out: PI3Kα Inhibition
metric: IC50

Examples from the recorded data:
O=C(/C=C/c1cccnc1)CCC(=O)N1CCN(Cc2cc3nc(-c4cccc5[nH]ncc45)nc(N4CCOCC4)c3s2)CC1 [II-a-132]
100 to 1000 nM
CC(C)(C)/C=C/C(=O)CCC(=O)N1CCN(Cc2cc3nc(-c4cccc5[nH]ncc45)nc(N4CCOCC4)c3s2)CC1 [II-a-131]
100 to 1000 nM
CNC(=O)Nc1ccc(-c2nc(N3CCOCC3)c3cnn(C4CCN(C(=O)CCC(=O)/C=C/c5ccccc5)CC4)c3n2)cc1 [VII-10]
100 to 1000 nM
C/C=C/C(=O)CCC(=O)N1CCC(n2ncc3c(N4CCOCC4)nc(-c4ccc(NC(=O)NC)cc4)nc32)CC1 [VII-7]
100 to 1000 nM
C=CC(=O)NCCC(=O)N1CCC[C@@H](n2nc(-c3cc4cc(O)ccc4[nH]3)c3c(N)ncnc32)C1 [XI-4]
> 1000 nM

## Input Write down the reported IC50 of C/C=C/C(=O)CCCC(=O)Nc1ccc2c(c1)N(c1nc3c(s1)C(=O)NC(C)(C)C3)CCO2 [VI-24] , test system: PI3Kα (p110α/p85α) (Homo sapiens, UniProt P42336).
## Output > 1000 nM

## Input Find IC50 (PI3Kα (p110α/p85α) (Homo sapiens, UniProt P42336)) for the entry O=C(/C=C/c1ccncc1)CCC(=O)N1CCN(Cc2cc3nc(-c4cccc5[nH]ncc45)nc(N4CCOCC4)c3s2)CC1 [II-a-141]
## Output 10 to 100 nM
